# tgt: Histone deacetylase 1 (Homo sapiens, UniProt Q13547)
# Sequence (Q13547 whole entry): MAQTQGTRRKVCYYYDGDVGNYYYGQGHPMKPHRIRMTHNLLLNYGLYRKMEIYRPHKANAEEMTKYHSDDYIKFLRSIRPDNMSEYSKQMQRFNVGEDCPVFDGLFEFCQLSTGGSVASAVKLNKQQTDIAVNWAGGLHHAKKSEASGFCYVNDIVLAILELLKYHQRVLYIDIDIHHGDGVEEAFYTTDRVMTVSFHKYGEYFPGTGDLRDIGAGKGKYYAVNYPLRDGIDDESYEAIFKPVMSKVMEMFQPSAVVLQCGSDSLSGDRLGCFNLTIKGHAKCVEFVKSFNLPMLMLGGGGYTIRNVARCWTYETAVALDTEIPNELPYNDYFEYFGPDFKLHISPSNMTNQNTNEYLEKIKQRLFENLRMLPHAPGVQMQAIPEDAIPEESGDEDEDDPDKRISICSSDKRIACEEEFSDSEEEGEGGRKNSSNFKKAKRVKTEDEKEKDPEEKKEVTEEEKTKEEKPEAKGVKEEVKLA
# test_description: Inhibition of HDAC1 in human HCT116 cells assessed as inhibition of histone-H3 deacetylation after 24 hrs
measure: EC50 (µM)
State just the number; it will be interpreted in µM.

stdin: Request: EC50, test system Histone deacetylase 1 (Homo sapiens, UniProt Q13547), entry CS(=O)(=O)Cc1noc(-c2ccc(C(=O)C(F)(F)F)s2)n1
stdout: 9

###

# test_description: Metabolic stability in S9 fraction of human HACT116 cells assessed as half life by LC-MS/MS analysis
# Format: ADME, subcellular
# test_context: S9 fraction of HACT116 (HCT116) cells
measure: half-life (min)

smiles_text | half-life / min
O=C(c1cnc(-c2ccccc2)s1)C(F)(F)F | 15

P = CN(Cc1ccc2nccnc2c1)C(=O)c1ccc(C(=O)C(F)(F)F)s1
Q = O=C(c1ccc(-c2ccc3nccnc3c2)s1)C(F)(F)F
R = O=C(c1ccc(-c2nc(CS(=O)(=O)c3cccs3)no2)s1)C(F)(F)F
stdin: Rank items: key half-life, increasing. Would you mind listing the labels in the order asked for?
stdout: Q, P, R
(Q: 10 min, P: 15 min, R: 52 min)

###

# tgt: Protein deacetylase HDAC6 (Homo sapiens, UniProt Q9UBN7)
# Sequence (Q9UBN7 whole entry): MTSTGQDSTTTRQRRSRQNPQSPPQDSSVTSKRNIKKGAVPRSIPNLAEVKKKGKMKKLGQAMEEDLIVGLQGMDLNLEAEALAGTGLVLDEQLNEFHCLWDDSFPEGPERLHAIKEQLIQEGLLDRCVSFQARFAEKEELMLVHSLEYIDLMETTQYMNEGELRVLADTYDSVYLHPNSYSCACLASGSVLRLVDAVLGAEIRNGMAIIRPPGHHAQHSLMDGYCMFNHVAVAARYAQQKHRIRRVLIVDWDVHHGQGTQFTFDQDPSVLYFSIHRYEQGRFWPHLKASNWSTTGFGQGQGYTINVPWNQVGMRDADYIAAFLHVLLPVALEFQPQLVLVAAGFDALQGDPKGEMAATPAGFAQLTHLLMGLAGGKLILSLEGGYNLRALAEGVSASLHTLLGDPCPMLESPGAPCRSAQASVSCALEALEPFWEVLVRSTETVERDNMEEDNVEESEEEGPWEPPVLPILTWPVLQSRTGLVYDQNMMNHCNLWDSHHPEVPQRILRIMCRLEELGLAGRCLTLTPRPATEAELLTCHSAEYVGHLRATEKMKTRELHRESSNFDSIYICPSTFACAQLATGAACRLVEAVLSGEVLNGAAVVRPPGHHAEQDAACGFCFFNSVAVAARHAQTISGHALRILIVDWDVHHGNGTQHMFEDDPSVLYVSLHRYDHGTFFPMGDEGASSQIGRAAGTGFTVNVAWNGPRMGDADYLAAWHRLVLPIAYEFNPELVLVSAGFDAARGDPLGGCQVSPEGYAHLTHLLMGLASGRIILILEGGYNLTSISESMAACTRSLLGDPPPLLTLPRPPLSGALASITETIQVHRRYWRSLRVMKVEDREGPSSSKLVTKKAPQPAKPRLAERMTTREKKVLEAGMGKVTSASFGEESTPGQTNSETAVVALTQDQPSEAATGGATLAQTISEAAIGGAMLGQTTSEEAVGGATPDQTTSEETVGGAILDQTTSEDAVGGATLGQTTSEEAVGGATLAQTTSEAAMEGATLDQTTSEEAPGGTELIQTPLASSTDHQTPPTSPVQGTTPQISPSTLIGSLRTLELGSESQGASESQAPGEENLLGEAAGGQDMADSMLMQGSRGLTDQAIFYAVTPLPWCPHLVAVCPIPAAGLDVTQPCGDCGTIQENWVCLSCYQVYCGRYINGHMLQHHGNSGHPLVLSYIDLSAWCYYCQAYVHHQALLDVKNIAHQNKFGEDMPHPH
pIC50: −log10 of the molar value.
measure: pIC50

Worked cases, pIC50 given:
smiles_text | tgt | measure | quantitative_readout
O=C(c1ccc(-c2ccccc2)s1)C(F)(F)F | Protein deacetylase HDAC6 (Homo sapiens, UniProt Q9UBN7) | pIC50 | 6.77
O=C(c1ccc(-c2ccc3nccnc3c2)s1)C(F)(F)F | Protein deacetylase HDAC6 (Homo sapiens, UniProt Q9UBN7) | pIC50 | 7.82

P = O=C(c1cnc(-c2ccccc2)s1)C(F)(F)F
Q = O=C(O)c1cccc(-c2ccc(C(=O)C(F)(F)F)s2)c1
stdin: Between P and Q , which one shows the larger pIC50 value? Write down the label attached to your selection.
stdout: Q

###

# tgt: Histone deacetylase 1 (Homo sapiens, UniProt Q13547)
# test_description: Inhibition of HDAC1
pIC50: −log10 of the molar value.
measure: pIC50

smiles_text | pIC50
O=C(c1cnc(-c2ccccc2)s1)C(F)(F)F | 5.43

I = O=C(O)c1ccc(-c2ccc(C(=O)C(F)(F)F)s2)cc1
II = O=C(c1ccc(-c2ccc3nccnc3c2)s1)C(F)(F)F
III = O=C(O)c1cccc(-c2ccc(C(=O)C(F)(F)F)s2)c1
stdin: Rank order required: pIC50, descending. Would you mind listing the labels in the order asked for?
stdout: II, I, III

###

# tgt: Protein deacetylase HDAC6 (Homo sapiens, UniProt Q9UBN7)
# Sequence (Q9UBN7 whole entry): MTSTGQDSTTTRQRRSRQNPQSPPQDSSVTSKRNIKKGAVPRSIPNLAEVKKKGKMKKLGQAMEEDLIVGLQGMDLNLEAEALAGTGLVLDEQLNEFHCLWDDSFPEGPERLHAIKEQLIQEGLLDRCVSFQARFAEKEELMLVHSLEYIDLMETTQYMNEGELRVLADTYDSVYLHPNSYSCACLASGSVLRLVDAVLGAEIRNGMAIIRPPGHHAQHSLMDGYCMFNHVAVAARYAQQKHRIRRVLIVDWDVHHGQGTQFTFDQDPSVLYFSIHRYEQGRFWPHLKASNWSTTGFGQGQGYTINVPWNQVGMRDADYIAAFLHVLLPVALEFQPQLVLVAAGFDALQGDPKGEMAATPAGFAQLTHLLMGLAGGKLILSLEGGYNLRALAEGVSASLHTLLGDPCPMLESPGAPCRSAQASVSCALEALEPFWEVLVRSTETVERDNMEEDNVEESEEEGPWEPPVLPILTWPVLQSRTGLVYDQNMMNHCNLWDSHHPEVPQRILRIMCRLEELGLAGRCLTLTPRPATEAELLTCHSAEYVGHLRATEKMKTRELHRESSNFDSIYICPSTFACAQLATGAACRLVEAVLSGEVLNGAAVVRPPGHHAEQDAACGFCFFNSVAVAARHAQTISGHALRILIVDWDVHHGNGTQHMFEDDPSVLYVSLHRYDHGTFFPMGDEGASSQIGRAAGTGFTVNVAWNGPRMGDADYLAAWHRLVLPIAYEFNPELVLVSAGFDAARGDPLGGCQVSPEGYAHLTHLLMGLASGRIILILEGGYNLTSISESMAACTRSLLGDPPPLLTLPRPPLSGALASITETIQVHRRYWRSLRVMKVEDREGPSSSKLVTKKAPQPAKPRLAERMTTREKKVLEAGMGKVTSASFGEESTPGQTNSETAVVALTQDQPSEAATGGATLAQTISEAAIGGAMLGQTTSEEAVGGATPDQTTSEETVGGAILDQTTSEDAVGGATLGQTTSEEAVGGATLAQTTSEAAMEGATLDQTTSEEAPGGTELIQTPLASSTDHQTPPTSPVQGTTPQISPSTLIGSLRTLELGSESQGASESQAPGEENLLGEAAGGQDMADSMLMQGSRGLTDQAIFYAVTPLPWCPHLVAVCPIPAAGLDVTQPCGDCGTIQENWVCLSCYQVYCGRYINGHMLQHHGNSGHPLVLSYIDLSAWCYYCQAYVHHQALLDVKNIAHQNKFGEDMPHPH
# test_description: Inhibition of HDAC6 in human HCT116 cells assessed as alpha-tubulin hyperacetylation after 24 hrs
# Assay type: cell-based, HCT-116
measure: EC50 (nM)

A = CS(=O)(=O)Cc1noc(-c2ccc(C(=O)C(F)(F)F)s2)n1
B = O=C(O)c1cccc(-c2ccc(C(=O)C(F)(F)F)s2)c1
stdin: Lower value for measured EC50? Options: A , B Write down the label attached to your selection.
stdout: A

###

# test_description: Metabolic stability in human HCT116 cells assessed as half life by LC-MS/MS analysis
# Format: ADME, cell-based, HCT-116
measure: half-life (h)

smiles_text | half-life (h)
N#Cc1ccc(-c2ccc(C(=O)C(F)(F)F)s2)cc1 | 8

I = O=C(c1ccc(-c2nc(CS(=O)(=O)c3cccs3)no2)s1)C(F)(F)F
II = O=C(O)c1cccc(-c2ccc(C(=O)C(F)(F)F)s2)c1
stdin: Between I and II , which one shows the larger half-life value? Write down the label attached to your selection.
stdout: II

###

The listing below reports IC50 for compounds tested on Protein deacetylase HDAC6 (Homo sapiens, UniProt Q9UBN7).

Worked cases, IC50 given:
smiles_text | result
COc1ccc(-c2ccc(C(=O)C(F)(F)F)s2)cc1 | > 1000 nM
O=C(c1ccc(-c2ccc3[nH]ccc3c2)s1)C(F)(F)F | > 5000 nM

Next compound, please.
stdin: Request: IC50, test system Protein deacetylase HDAC6 (Homo sapiens, UniProt Q9UBN7), entry O=C(c1ccc(-c2ccccn2)s1)C(F)(F)F
stdout: > 1000 nM
